- Test Protocol: Approximate solubility by incremental solvent addition with shaking/sonication
- Type: physicochemical
- Test Parameters: organic solvent or mixture, thermodynamic from solid; 2-Propanol, about 25° C., approximate; read-out: Solubility S
Recorded Endpoint: solubility

>>> df
                               smiles_input  recorded_endpoint    assay_result
0  OC[C@H]1[C@@H](O)[C@H](O)[C@@H](O)CN1CCCCCOCc1ccc(-c2ccccc2)c(F)c1         solubility  19 to 20 mg/mL

---

- Test Protocol: Approximate solubility by incremental solvent addition with shaking/sonication
- Format: physicochemical
- Test Parameters: organic solvent or mixture, thermodynamic from solid; Acetone, about 25° C., approximate; read-out: Solubility S
Recorded Endpoint: solubility

                               smiles_input  recorded_endpoint    assay_result
0  OC[C@H]1[C@@H](O)[C@H](O)[C@@H](O)CN1CCCCCOCc1ccc(-c2ccccc2)c(F)c1         solubility  55 to 73 mg/mL

---

- Test Protocol: Approximate solubility by incremental solvent addition with shaking/sonication
- Assay type: physicochemical
- Test Parameters: organic solvent or mixture, thermodynamic from solid; Acetonitrile, about 25° C., approximate; read-out: Solubility S
Recorded Endpoint: solubility

In [3]: df
Out[3]:
                               smiles_input        assay_result
0  OC[C@H]1[C@@H](O)[C@H](O)[C@@H](O)CN1CCCCCOCc1ccc(-c2ccccc2)c(F)c1  5000 to 8000 µg/mL

---

- Test Protocol: Approximate solubility by incremental solvent addition with shaking/sonication
- Assay type: physicochemical
- Test Parameters: organic solvent or mixture, thermodynamic from solid; Ethanol, about 25° C., approximate; read-out: Solubility S
Recorded Endpoint: solubility

                                   compound  recorded_endpoint    assay_result
0  OC[C@H]1[C@@H](O)[C@H](O)[C@@H](O)CN1CCCCCOCc1ccc(-c2ccccc2)c(F)c1 [compound (I)]         solubility  40 to 53 mg/mL
